Origin of measurements: patent US20230278995A1

Listed compounds paired with reported IC50
subjectOfTest: human recombinant HDAC1 (Homo sapiens)
Construct: purchased Enzo Life Sciences, Inc. BML-SE456
Sequence (Q13547 whole entry): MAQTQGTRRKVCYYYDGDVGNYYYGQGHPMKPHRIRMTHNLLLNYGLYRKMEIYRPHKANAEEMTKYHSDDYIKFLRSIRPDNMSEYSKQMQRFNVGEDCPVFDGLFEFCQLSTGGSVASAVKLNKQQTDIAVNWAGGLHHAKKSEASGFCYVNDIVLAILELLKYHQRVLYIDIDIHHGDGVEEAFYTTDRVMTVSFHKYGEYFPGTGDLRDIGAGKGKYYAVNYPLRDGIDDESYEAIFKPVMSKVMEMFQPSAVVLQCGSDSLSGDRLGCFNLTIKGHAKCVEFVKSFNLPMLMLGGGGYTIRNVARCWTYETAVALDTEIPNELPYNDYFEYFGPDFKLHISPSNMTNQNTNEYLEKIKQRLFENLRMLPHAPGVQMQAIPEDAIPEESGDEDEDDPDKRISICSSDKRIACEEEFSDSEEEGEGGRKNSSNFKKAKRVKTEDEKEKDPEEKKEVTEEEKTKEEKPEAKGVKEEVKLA
assayExplanation: HDAC enzyme activity inhibition assay (HDAC Fluorimetric Drug Discovery Kit), HDAC1
Type: biochemical
condition: human recombinant HDAC1, Fluor de Lys-SIRT1 substrate, 30° C. 60 minutes
readoutLabel: IC50

1) CC(C)CN1CC(F)(C(=O)N(Cc2ccc(-c3nnc(C(F)F)o3)cn2)c2cccc(F)c2)C1 [Compound 3093]: > 50 µM
2) CN1CC(F)(C(=O)N(Cc2ccc(-c3nnc(C(F)F)o3)cn2)c2ccccc2)C1 [Compound 2973]: > 50 µM
3) CN1CC(F)(C(=O)N(Cc2ccc(-c3nnc(C(F)F)o3)cn2)c2cccc(F)c2)C1 [Compound 3047]: 20.8 µM
4) O=C(N(Cc1ccc(-c2nnc(C(F)F)o2)cn1)c1ccccc1)C1(F)CCN(C2CC3(COC3)C2)CC1 [Compound 2995]: > 50 µM
5) O=C(N(Cc1ccc(-c2nnc(C(F)F)o2)cn1)c1cccc(F)c1)C1(F)CN(C2CCN(C3CCOC3)CC2)C1 (centres unmarked) [Compound 3408]: 37 µM
6) CN(C)CCCC(=O)N1CC(F)(C(=O)N(Cc2ccc(-c3nnc(C(F)F)o3)cn2)c2cccc(F)c2)C1 [Compound 3098]: > 50 µM
7) CC(C)C(=O)N1CC(F)(C(=O)N(Cc2ccc(-c3nnc(C(F)F)o3)cc2F)c2ccccc2)C1 [Compound 3434]: > 50 µM
8) O=C(C1CC1)N1CC(F)(C(=O)N(Cc2ccc(-c3nnc(C(F)F)o3)cn2)c2ccccc2)C1 [Compound 3158]: > 50 µM
9) CC(C)N1CC(N2CCC(F)(C(=O)N(Cc3ccc(-c4nnc(C(F)F)o4)cn3)c3cccc(F)c3)CC2)C1 [Compound 3393]: > 50 µM
10) O=C(N(Cc1ccc(-c2nnc(C(F)F)o2)cn1)c1cccc(F)c1)C1(F)CCN(C2CCC2)CC1 [Compound 2971]: > 50 µM
11) CC(=O)N1CCC(F)(C(=O)N(Cc2ccc(-c3nnc(C(F)F)o3)cc2F)c2ccccc2)CC1 [Compound 3438]: > 50 µM

###

subjectOfTest: human recombinant HDAC6 (Homo sapiens)
Construct: purchased Calbiochem Inc. 382180
Sequence (Q9UBN7 whole entry): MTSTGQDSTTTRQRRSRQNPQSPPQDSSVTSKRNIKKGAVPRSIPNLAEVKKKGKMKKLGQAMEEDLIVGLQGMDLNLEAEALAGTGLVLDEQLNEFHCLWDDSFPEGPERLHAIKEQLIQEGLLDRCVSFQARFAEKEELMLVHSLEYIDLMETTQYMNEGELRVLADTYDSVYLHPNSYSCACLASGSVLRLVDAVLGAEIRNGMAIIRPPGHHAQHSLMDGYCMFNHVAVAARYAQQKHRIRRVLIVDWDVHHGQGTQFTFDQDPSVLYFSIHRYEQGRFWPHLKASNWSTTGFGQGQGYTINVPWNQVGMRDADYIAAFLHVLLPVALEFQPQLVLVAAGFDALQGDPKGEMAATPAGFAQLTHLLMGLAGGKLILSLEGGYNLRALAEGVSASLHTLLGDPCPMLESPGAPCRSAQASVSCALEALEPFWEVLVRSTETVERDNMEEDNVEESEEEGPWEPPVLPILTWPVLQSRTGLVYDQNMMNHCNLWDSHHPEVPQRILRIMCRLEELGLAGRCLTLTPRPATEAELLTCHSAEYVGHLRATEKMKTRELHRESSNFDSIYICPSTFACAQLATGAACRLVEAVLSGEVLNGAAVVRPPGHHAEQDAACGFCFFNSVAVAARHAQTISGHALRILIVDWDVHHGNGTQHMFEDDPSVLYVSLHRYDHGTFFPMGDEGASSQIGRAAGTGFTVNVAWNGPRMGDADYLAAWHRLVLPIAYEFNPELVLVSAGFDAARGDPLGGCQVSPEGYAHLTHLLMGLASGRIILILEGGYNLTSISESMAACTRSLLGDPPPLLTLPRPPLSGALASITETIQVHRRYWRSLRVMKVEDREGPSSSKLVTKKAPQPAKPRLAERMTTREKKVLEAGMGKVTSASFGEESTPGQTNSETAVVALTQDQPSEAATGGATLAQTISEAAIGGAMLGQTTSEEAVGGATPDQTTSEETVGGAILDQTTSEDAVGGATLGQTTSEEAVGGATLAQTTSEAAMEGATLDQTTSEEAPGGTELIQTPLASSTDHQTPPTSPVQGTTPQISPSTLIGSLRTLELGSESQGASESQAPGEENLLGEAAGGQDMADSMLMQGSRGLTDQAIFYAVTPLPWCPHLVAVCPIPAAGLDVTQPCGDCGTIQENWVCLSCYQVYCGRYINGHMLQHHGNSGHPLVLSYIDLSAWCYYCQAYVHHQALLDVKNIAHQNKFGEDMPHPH
assayExplanation: HDAC enzyme activity inhibition assay (HDAC Fluorimetric Drug Discovery Kit), HDAC6
Type: biochemical
condition: HDAC1 vs HDAC6
Experimental: For the HDAC1 enzyme activity test, human recombinant HDAC1 (BML-SE456) was used as an enzyme source and Fluor de Lys©-SIRT1 (BNL-K1177) was used as a substrate. […] Next, Fluor de Lys© Developer II (BML-K1176) was added and reacted for 30 minutes to complete the reaction, and then the fluorescence values (Ex 360, Em 460) were measured using a multi-plate reader (Flexstation 3, Molecular Device). […]
readoutLabel: HDAC6 selectivity (fold)

1) CCCCN1CCC(N2CC(F)(C(=O)N(Cc3ccc(-c4nnc(C(F)F)o4)cn3)c3ccccc3)C2)CC1: 1,543 fold
2) O=C(C1CC1)N1CC(F)(C(=O)N(Cc2ccc(-c3nnc(C(F)F)o3)cn2)c2cccc(F)c2)C1: 1,440 fold
3) O=C(N(Cc1ccc(-c2nnc(C(F)F)o2)cn1)c1cccc(F)c1)C1(F)CN(C2CCN(C3CCOCC3)CC2)C1: 1,343 fold
4) CCCCN1CCC(N2CC(F)(C(=O)N(Cc3ccc(-c4nnc(C(F)F)o4)cn3)c3cccc(F)c3)C2)CC1: 2,403 fold
5) O=C(N(Cc1ccc(-c2nnc(C(F)F)o2)cn1)c1ccccc1)C1(F)CN(C2CCSCC2)C1: 2,272 fold
6) CC(C)N1CC(N2CC(F)(C(=O)N(Cc3ccc(-c4nnc(C(F)F)o4)cn3)c3cccc(F)c3)C2)C1: 1,326 fold
7) CCCN1CC(F)(C(=O)N(Cc2ccc(-c3nnc(C(F)F)o3)cn2)c2cccc(F)c2)C1: 1,436 fold
8) CCC(=O)N1CC(F)(C(=O)N(Cc2ccc(-c3nnc(C(F)F)o3)cn2)c2cccc(F)c2)C1: 2,155 fold
9) O=C(N(Cc1ccc(-c2nnc(C(F)F)o2)cn1)c1cccc(F)c1)C1(F)CN(C2CCN(C3CCCCC3)CC2)C1: 1,497 fold
10) CCN1CC(N2CC(F)(C(=O)N(Cc3ccc(-c4nnc(C(F)F)o4)cn3)c3cccc(F)c3)C2)C1: 1,272 fold
11) O=C(C1CCCCC1)N1CC(F)(C(=O)N(Cc2ccc(-c3nnc(C(F)F)o3)cn2)c2cccc(F)c2)C1: 2,066 fold
12) CC(=O)N1CC(F)(C(=O)N(Cc2ccc(-c3nnc(C(F)F)o3)cn2)c2ccccc2)C1: 1,377 fold
13) O=C(C1CCC1)N1CC(F)(C(=O)N(Cc2ccc(-c3nnc(C(F)F)o3)cn2)c2ccccc2)C1: 1,650 fold
14) O=C(N(Cc1ccc(-c2nnc(C(F)F)o2)cn1)c1cccc(F)c1)C1(F)CN(C2CN(C3COC3)C2)C1: 1,388 fold
15) CC(C)CC(=O)N1CC(F)(C(=O)N(Cc2ccc(-c3nnc(C(F)F)o3)cn2)c2ccccc2)C1: 1,326 fold
16) CCN1CCC(N2CC(F)(C(=O)N(Cc3ccc(-c4nnc(C(F)F)o4)cn3)c3cccc(F)c3)C2)CC1: 1,695 fold
17) O=C(C1CCCC1)N1CC(F)(C(=O)N(Cc2ccc(-c3nnc(C(F)F)o3)cn2)c2cccc(F)c2)C1: 2,808 fold
18) O=C(N(Cc1ccc(-c2nnc(C(F)F)o2)cn1)c1ccccc1)C1(F)CCN(C2CC3(COC3)C2)CC1: 600 fold
